The measured values listed here are drawn from paper PMC4216207.

protocol details: cellular cytotoxicity assay
Type: cell-based
cond: human, HOS human osteosarcoma cells
Measured CC50, listed per entry.
observed property: CC50

- compound: "COC(=O)[C@H](Nc1c(C(=O)NCc2ccc(F)cc2F)c(=O)n(O)c2ncccc12)c1ccccc1 [(R)-5s]"
  observed property: "CC50"
  value observed: "> 250 µM"
- compound: "COC(=O)[C@H](C)Nc1c(C(=O)NCc2ccc(F)cc2F)c(=O)n(O)c2ncccc12 [(S)-5r]"
  observed property: "CC50"
  value observed: "> 250 µM"
- compound: "COC(=O)[C@@H](CO)Nc1c(C(=O)NCc2ccc(F)cc2F)c(=O)n(O)c2ncccc12 [(R)-5t]"
  observed property: "CC50"
  value observed: "> 250 µM"
